test: in vitro; conditions: human, hela cells, % viability
measurementKind: viability at 28.5 h, 10 µM
Give the number first and the unit second.

Before answering, review these 6 worked examples.
- compound: "Cc1ccccc1C(=O)NC(=S)Nc1sc2c(c1C#N)CCCC2"
  recordedMeasurement: "98.3%"
- compound: "COc1cc(/C=N/NC(=O)CCN2CCN(C)CC2)cc(OC)c1O"
  recordedMeasurement: "100%"
- compound: "COc1ccccc1-c1nn2c(Cn3cnc4ccccc43)nnc2s1"
  recordedMeasurement: "93%"
- compound: "COc1cc(/C=C/C(=O)NCc2ccc(C(=O)O)cc2)ccc1O"
  recordedMeasurement: "86.4%"
- compound: "Cc1noc2nc(C3CCN(C(=O)C4CC4)CC3)cc(C(F)F)c12"
  recordedMeasurement: "95.8%"
- compound: "Cc1ccc2oc(-c3cc(NC(=O)c4nc[nH]n4)ccc3O)nc2c1"
  recordedMeasurement: "101%"

Summary for this compound, COc1ccc(CN2CCCn3c4c(c5cc(C)ccc53)CCCC42)cc1OCc1ccccc1 (centres unmarked) : viability at 28.5 h, 10 µM is 96.4%

The recorded viability at 28.5 h, 10 µM for `OCCN(Cc1ccccc1)Cc1ccc(-c2ccccc2)cc1` is 102%

// field: viability at 28.5 h, 10 µM; key: `CSc1ccc(CN(CCO)CCO)cc1` ; value = 98.6%

The compound identified as `c1cc(-c2cncc(-c3ccsc3)n2)cs1` registered its viability at 28.5 h, 10 µM at 95.7%

Short answer for CC(N(C)CC(=O)NCc1ccc(OCC(N)=O)cc1)C(C)(C)C (centres unmarked) : viability at 28.5 h, 10 µM was 99.2%

The measured viability at 28.5 h, 10 µM associated with `CCc1c(O)c2ccccc2n(Cc2ccccc2)c1=O` reads 90%

The compound listed as `CSc1nc2ncnc(N3CCC(O)CC3)c2s1` shows viability at 28.5 h, 10 µM equal to 84.4%

Please fill in: viability at 28.5 h, 10 µM reported for `O=C(CCn1cnnn1)N1C[C@H]2CC[C@@H]1CN(Cc1cccnc1)C2` = 88.9%

----------
assay: in vitro; conditions: human, hela cells, % viability
Collected viability at 28.5 h, 10 µM values appear next to each entry.
Please state the figure in %; there is no need to write the unit.

- compound: "O=C(CN(Cc1ccccc1Cl)S(=O)(=O)c1ccc(Cl)cc1)NC1CCCCC1"
  viability at 28.5 h, 10 µM, %: 97.5
- compound: "Cc1cccc(-c2ncc(NC(=O)CCc3cccnc3)nc2-c2ccc(N)cc2)c1"
  viability at 28.5 h, 10 µM, %: 86.9
- compound: "COc1ccc(S(=O)(=O)NC(C)C(=O)NCc2ccncc2)cc1 (stereo not drawn)"
  viability at 28.5 h, 10 µM, %: 107
- compound: "CCC(=O)N1CCC2(CC1)CNC(=O)c1cc(C)ccc1O2"
  viability at 28.5 h, 10 µM, %: 85.2
- compound: "N/C(=N\\OC(=O)CSc1ccccc1)c1ccccn1"
  viability at 28.5 h, 10 µM, %: 105
- compound: "COc1ccc(-c2ccc3ccc(NC(=O)C(C)C)nc3n2)cc1C"
  viability at 28.5 h, 10 µM, %: 92.3
- compound: "Clc1ccc(CN2CCCN(c3cc(OC4CCCCC4)ncn3)CC2)cc1Cl [CBK083338T]"
  viability at 28.5 h, 10 µM, %: 79.5
- compound: "COc1ccc(C)cc1S(=O)(=O)n1ccc2c(CNC3CCN(C(C)C)CC3)cccc21 [CBK113310T]"
  viability at 28.5 h, 10 µM, %: 117

# viability at 28.5 h, 10 µM of CC(C)(C)c1[nH]c2ncccc2c1CN1CCCC(CO)C1 (stereo not drawn) = 99.1
